- system: POSH (Homo sapiens, UniProt Q7Z6J0)
- Sequence (Q7Z6J0 1-269 limits assumed): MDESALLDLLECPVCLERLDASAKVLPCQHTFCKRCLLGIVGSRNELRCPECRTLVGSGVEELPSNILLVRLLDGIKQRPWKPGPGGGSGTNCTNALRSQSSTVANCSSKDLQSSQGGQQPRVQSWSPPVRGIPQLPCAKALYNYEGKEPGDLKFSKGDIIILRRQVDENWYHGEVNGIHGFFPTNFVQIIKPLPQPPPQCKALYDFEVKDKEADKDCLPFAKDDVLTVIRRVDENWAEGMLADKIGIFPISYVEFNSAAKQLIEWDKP
Assignment: determine reported pIC50 for the given compounds.
pIC50 (log units): -log10 of the concentration in mol/L.

Which value of pIC50 has been reported for `O=C1NC(=O)/C(=C\c2ccc(-c3ccc(F)cc3)o2)S1` in the records? 6.05

What about this compound? `O=C1C(=Cc2ccco2)C(=O)N(c2ccccc2)C(=S)N1c1ccccc1` 6.00

Ok, now `N=C1NC(=O)/C(=C\c2ccc(-c3ccc(I)cc3)o2)S1` 6.15

// next record `C=CCN1C(=O)NC(=O)/C(=C/c2ccc(F)cc2)C1=O` 6.00

###

Consider the following compounds; for each one, report its remaining activity at 1 µM.
- system: POSH (Homo sapiens, UniProt Q7Z6J0)
- Construct: GST-POSH lot NB81/p.118 3.6 mg/ml; fused on or other part: GST tag, used for detection with anti-GST XL665
- assayProcedure: Selectivity (% A in 1 μM), ubiquitin ligase activity of POSH
- Type: biochemical
- runParameters: % activity at 1 μM compound; control is related to 100% activity; HTS protocol; read-out: Selectivity (% A* in 1 μM) POSH
Give the figure together with its unit, number first.

Quick one: remaining activity at 1 µM of `CCOC(=O)c1c(/N=C/c2cc(Br)ccc2O)sc2c1CCCC2` ? 72%

Request: `COc1cc(C=C2C(=O)N(C)C(=S)N(C)C2=O)ccc1O` 91%

Okay, and `Oc1c(Br)cc(Br)cc1/C=N/c1nc2ccccc2s1` ? 37%

Same for `Cc1ccc(C(=O)NN=C2CCC(=NNC(=O)c3ccc(C)cc3)CC2)cc1` 21%

Lookup `Cc1[nH]c(=O)c(C(=O)/C=C/c2ccccc2F)c2c1CCCC2` 12%

Would you mind doing `COc1ccccc1/C=C1\N=C(c2ccccc2Cl)OC1=O` as well? 77%

Please do the same for `C=CCN1C(=O)NC(=O)/C(=C/c2ccc(F)cc2)C1=O` as well. 54%

Could you do the same for `Oc1ccc2ccccc2c1/C=N/c1ncc(Br)cc1Br` , please? 53%

Another: `O=C(/C=C/c1cccnc1)c1ccc(C(=O)/C=C/c2cccnc2)cc1` 21%

Also `Oc1c(Br)cc(Br)cc1/C=N/c1cccc2nsnc12` ? 27%

Same read-out for `COc1cc(N/C=C2/C(=O)NC(=S)N(c3cccc(C)c3)C2=O)cc(OC)c1` ? 51%

Cool, now `Oc1c(Br)cc(Br)cc1/C=N/c1ccc(Br)cn1` 35%

Next up: COc1ccc(CC(C)NCc2ccccc2Cl)cc1 (centres unmarked) 68%

Here is the next compound: `Oc1c(Cl)cc(Cl)cc1/C=N/c1ccc(-c2nc3ccccc3[nH]2)cc1` 30%

Repeat with `O=C1C=CC(=O)N1c1cc(Cl)cc(Cl)c1` 9%

How about `Cc1ccc(/C=N/c2ccc(Cl)cc2)o1` ? 17%

Next: `COc1ccc(CNc2cccc(N(C)C)c2)cc1` 27%

Origin of measurements: patent US7659277B2
